Please go through the items and note down their Percent Effect.
- System: Wolbachia pipientis
- RUN DESCRIPTION: Anti-Wolbachia Cell-Based Screen
- Format: functional
- Design: scale not given: in the data most compounds retested in dose-response had high values
- MEASUREMENT SETUP: 5 µM
Hit rate of the full screen: of about 48,000 compounds, about 13,000 (27%) showed an effect of 50% or more. This is one part of the list.
Numbers only, in %.

compound=COc1ncc(C2(O)CCN(Cc3c(F)cccc3F)CC2)c(OC)n1.Cl property_name="Percent Effect" assay_result=1.004
compound="CCS(=O)(=O)N1CCc2nc(C3CCN(C(=O)C4CC4)C3)nc(O)c2C1 (configuration not stated)" property_name="Percent Effect" assay_result=88.69
compound=O=C(O)c1cnc(-c2cccc3c2CCNC3)c(Cl)c1 property_name="Percent Effect" assay_result=123.8

Would you be so kind as to report Percent Effect for each listed record?
1. CCOC(C)c1noc(CN2CCCNCC2)n1 (configuration not stated)
2. O=C(O)c1cnc(OCC2CC2)c(Cl)c1
3. O=C(c1cnc(OCC(F)(F)F)c(Cl)c1)N1CCc2ccc(O)cc2C1
4. Cc1ccc(C(=O)O)cc1S(=O)(=O)N(C)c1cccc(C#N)c1
5. COc1ncc(C2(O)CCN(Cc3cccc(F)c3F)CC2)c(OC)n1.Cl
6. Cc1ccc(C(=O)O)cc1-c1cccc2c1CCNC2
7. COc1cc(OC)cc(C2(O)CCN(Cc3ncc(C)o3)CC2)c1

Completion:
[2.297, -32.81, -3.134, 8.363, 130.5, 128.8, 10.39]

Hi there! I need Percent Effect for each item below, if you can.
1. Cc1cnc(-n2cnnc2)c(-c2cccc3c2CCNC3)c1
2. COc1ncc(C2(O)CCN(Cc3cc(F)ccc3F)CC2)c(OC)n1.Cl

Completion:
[-5.841, 106.6]

* * *

- System: Wolbachia pipientis
- RUN DESCRIPTION: Anti-Wolbachia Cell-Based Screen
- Format: functional
- Set-up: scale not given: in the data most compounds retested in dose-response had high values
- MEASUREMENT SETUP: 5 µM
Hit rate of the full screen: of about 48,000 compounds, about 13,000 (27%) showed an effect of 50% or more. The list shows a part of the results.
Please provide measured Percent Effect for the entries that follow.
Numbers only, in %.

Past entries and their recorded results:
structure_string=CN(Cc1ccsc1)C(=O)c1cc2c([nH]c1=O)CCCC2=O property_name="Percent Effect" assay_result=2.933
structure_string=Cc1oc(-c2cccc(F)c2)nc1CN1CCOCS1(=O)=O property_name="Percent Effect" assay_result=-0.8413
structure_string=CS(=O)(=O)N1CCC(NC(=O)COc2ccccc2Cl)CC1 property_name="Percent Effect" assay_result=111.5
structure_string=CS(=O)(=O)N1CCC(NC(=O)COc2ccc(Br)cc2Cl)CC1 property_name="Percent Effect" assay_result=124.9
structure_string=O=S1(=O)COCCN1Cc1ccc(Cl)c(F)c1 property_name="Percent Effect" assay_result=-18.76

Provide the reported Percent Effect of each entry below, same order.
1. Cc1ccccc1Cc1nc(CSc2nnc(N)n2C)no1
2. c1ccc(CNC[C@H]2Cn3ccnc3CO2)cc1
3. Cc1nc(NC(=O)N(C)Cc2ccsc2)nn1C
4. Cc1cc(CN2CCOCS2(=O)=O)ccc1F
5. Cc1ccc(-c2nc(CN3CCOCS3(=O)=O)c(C)o2)cc1

Completion:
[3.092, -10.94, 1.412, -11.48, -5.038]

Give me Percent Effect for each of these molecules, listed below.
1. Cc1ncnc2c1CCN(C(=O)Cc1cccc(F)c1)CC2
2. Cc1ccc(CN(C)C(=O)c2n[nH]c(N)c2-c2ccccc2)o1

Completion:
1: 0.1924; 2: 90.65

* * *

I'd be grateful if you could share measured Percent Effect for these entries.
- Test system: Wolbachia pipientis
- RUN DESCRIPTION: Anti-Wolbachia Cell-Based Screen
- Type: functional
- Parameters: scale not given: in the data most compounds retested in dose-response had high values
- MEASUREMENT SETUP: 5 µM
About 13,000 (27%) of roughly 48,000 compounds showed an effect of 50% or more. This is one part of the list.
One number for each entry, in %.

compound=CS(=O)(=O)c1ccccc1C(=O)NCCCN1CCc2ccccc2C1 assay_result=5.39

Batch: Percent Effect for all items listed.
1. Cc1cccc(CNCC2COC3(CCCCC3)O2)c1C (configuration not stated)
2. CS(=O)(=O)c1ccccc1C(=O)NCC1Cc2ccccc2O1 (configuration not stated)
3. O=C(c1scc2c1OCCO2)N1CCOC(Cc2ccc(F)cc2)C1 (configuration not stated)
4. CC(NC(=O)NCCCc1n[nH]c(N)c1C#N)c1cccs1 (configuration not stated)
5. CCS(=O)(=O)Nc1cnn(Cc2cccc(F)c2)c1
6. CN(C)CC(=O)N1CCC2(CC1)COCCN(c1ncccn1)C2

Completion:
[5.002, -10.07, -34.62, -7.784, 105.7, 104.4]

* * *

- System: Wolbachia pipientis
- RUN DESCRIPTION: Anti-Wolbachia Cell-Based Screen
- Type: functional
- Design: scale not given: in the data most compounds retested in dose-response had high values
- MEASUREMENT SETUP: 5 µM
The whole screen tested about 48,000 compounds, of which about 13,000 (27%) showed an effect of 50% or more. This is one part of the list.
PROPERTY NAME: Percent Effect (%)
One number for each entry, in %.

The following molecules have reported results that may help.
molecule="CN(C)C(=O)NCC1CC2(CO1)CN(c1nncs1)C2 (stereo not drawn)" measured_target="Wolbachia pipientis" unit_of_measurement=% assay_result=109.2
molecule="O=C(NCC1CC2(CO1)CN(c1nncs1)C2)C1CCC1 (stereo not drawn)" measured_target="Wolbachia pipientis" unit_of_measurement=% assay_result=113.3
molecule="CCc1nccn1C1CCCN(C(=O)c2ccc3nnc(C)n3c2)C1 (stereo not drawn)" measured_target="Wolbachia pipientis" unit_of_measurement=% assay_result=92.62
molecule="O=C(C1CCC2(CCN(c3nncs3)CC2)C1)N1CCCC1 (stereo not drawn)" measured_target="Wolbachia pipientis" unit_of_measurement=% assay_result=-10.32
molecule="O=C(NCC1CC2(CO1)CN(Cc1cccs1)C2)C1CCC1.O=C(O)C(F)(F)F (stereo not drawn)" measured_target="Wolbachia pipientis" unit_of_measurement=% assay_result=112.2

Below are 3 molecules. Give each one its Percent Effect.
1. CN(C)C(=O)C1CN(Cc2ccsc2)Cc2ccnn2C1.O=C(O)C(F)(F)F (stereo not drawn)
2. Cc1cc(CN(C)C(=O)NC2CCN(S(C)(=O)=O)CC2)no1
3. O=C(NCC1CC2(CO1)CN(c1ncccn1)C2)C1CCC1 (stereo not drawn)

Completion:
-5.507
-12.59
124.3

// for each molecule in input: emit Percent Effect
1. CN(CCC#N)C(=O)CN1CCCN(Cc2noc(C3CC3)n2)CC1
2. CN(C)C(=O)C1CN(Cc2ccccc2)CCN(S(C)(=O)=O)C1 (stereo not drawn)
3. CN(Cc1ccccc1)CC1CC2(CO1)CN(c1nncs1)C2 (stereo not drawn)
4. Cc1cc(CN2CCc3nc(C)n(C)c(=O)c3CC2)[nH]n1

Completion:
[-26.77, 1.114, 4.017, -18.21]

* * *

- Tested on: Wolbachia pipientis
- RUN DESCRIPTION: Anti-Wolbachia Cell-Based Screen
- Format: functional
- Design: scale not given: in the data most compounds retested in dose-response had high values
- MEASUREMENT SETUP: 5 µM
Screen size: about 48,000 compounds; about 13,000 (27%) showed an effect of 50% or more. This is one part of the list.
PROPERTY NAME: Percent Effect (%)
Numbers only, in %.

compound="O=C(N1CCCCC1)N1CCCC1c1nnc2n1CCNC2 (configuration not stated)" unit_of_measurement=% assay_result=113
compound=O=C(NC1CC1)N1CCc2ccc(=O)n(CC3CC3)c2CC1 unit_of_measurement=% assay_result=7.486
compound=CCc1cc(N2CCS(=O)(=O)CC2)n2nc(C)c(C)c2n1 unit_of_measurement=% assay_result=1.934
compound="Cc1cc(N2CCCC(c3[nH]ncc3Cc3ccccc3)C2)nc(N)n1 (configuration not stated)" unit_of_measurement=% assay_result=51.86
compound=Cc1ncsc1C(=O)NCc1cccs1 unit_of_measurement=% assay_result=-3.425

Fill in Percent Effect for each of the 6 compounds listed.
1. COC(=O)c1sccc1CN1CCN(C(=O)c2ccc(C)o2)CC1
2. CCCS(=O)(=O)NC(=O)c1ccc(CC)o1
3. COCCn1c2c(ccc1=O)CC(N)CC2 (configuration not stated)
4. CCOc1cc(CNC(=O)c2cc(-c3ccccn3)no2)ccn1
5. Cc1cc(C(=O)N2C[C@H]3CC[C@@H]2CN(C(=O)c2ccncc2)C3)cs1
6. COCC(=O)N1CCc2ccc(=O)n(CC3CC3)c2CC1

Completion:
[-11.02, -1.389, -4.933, -5.804, -9.465, 104.1]

Need Percent Effect for each of these compounds.
1. CN(C)C(=O)c1cncnc1-c1ccc(CNC(=O)C2CC2)cc1
2. Cc1cn(CC(=O)NC2CCN(C(C)C)CC2)c2ccccc12
3. Cc1ccc(C)c(NC(=O)N(C)Cc2cnn(C)c2)c1

Completion:
1. 73.6
2. -15.19
3. 5.925

Items follow; give Percent Effect for each.
1. Cc1cccc(N2CCN(CCCNC(=O)c3nccn3C)CC2)c1
2. CC(C)n1c2ccccc2c2c1cc(C(=O)NCCO)n2C(=O)N(C)C
3. COc1cccc(CN(C)C(=O)CN2CCN(c3nccn3C)CC2)c1
4. CCOC(=O)c1nc(CN2CCC(NC(=O)C(C)C)CC2)cs1

Completion:
[29.8, 98.19, 6.217, -9.152]

Batch lookup, Percent Effect per entry.
1. CC(C)NC(=O)N1CCC(c2nccn2C(C)C)CC1
2. Cc1cc(C(=O)NCc2ccc(-c3n[nH]cc3C(=O)N(C)C)cc2)on1
3. O=C(NCC1CC1)C1CCC2(CN(C(=O)c3ccno3)C2)O1 (configuration not stated)
4. Cc1ccc(N2CCCC(c3[nH]ncc3Cc3ccccc3)C2)nn1 (configuration not stated)
5. C=C(C)CN1CCC(NC(=O)NCCc2ccc(N(C)C)cc2)CC1
6. Cc1cc(C(=O)NCc2ccccc2CN(C)Cc2ccco2)on1
7. CCCc1nc(C)cc(N2CCC3(CCC(=O)N(CCCO)C3)CC2)n1

Completion:
[0.5032, 136.2, -9.78, 26.61, -10.94, 21.5, 11.58]

Values were extracted from ChEMBL document CHEMBL3988442.
